Every entry's value here was drawn from ChEMBL document CHEMBL1773062.

# Target under test: Mu-type opioid receptor (Homo sapiens)
# Sequence (P35372 whole entry): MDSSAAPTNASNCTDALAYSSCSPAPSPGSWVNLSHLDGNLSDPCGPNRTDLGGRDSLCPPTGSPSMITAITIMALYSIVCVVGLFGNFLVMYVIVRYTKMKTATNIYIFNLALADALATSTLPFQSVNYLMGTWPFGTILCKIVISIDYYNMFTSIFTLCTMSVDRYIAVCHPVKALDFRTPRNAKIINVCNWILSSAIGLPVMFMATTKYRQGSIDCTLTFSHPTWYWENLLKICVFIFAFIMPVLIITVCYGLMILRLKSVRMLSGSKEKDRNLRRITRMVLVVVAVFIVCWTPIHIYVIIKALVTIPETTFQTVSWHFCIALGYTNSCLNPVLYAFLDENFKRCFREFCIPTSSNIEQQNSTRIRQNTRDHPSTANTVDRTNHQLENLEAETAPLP
# Protocol description: Displacement of [3H]DAMGO from mu opioid receptor
pKi: −log10 of the molar value.
Property: pKi

Lookup: For the compound shown here, CCOC(=O)C1=C(C(=O)OCC)C2OC1C=C2[C@@H]1C[C@]2(C)[C@H]3C(=O)[C@@H](OC(C)=O)C[C@@H](C(=O)OC)[C@]3(C)CC[C@H]2C(=O)O1 (stereo partly drawn) , give the reported pKi.
Found: < 5.49

Lookup: For the compound shown here, "COC(=O)[C@@H]1C[C@H](OC(C)=O)C(=O)[C@H]2[C@@]1(C)CC[C@H]1C(=O)O[C@H](c3ccc4ccccc4c3)C[C@]21C" , give the reported pKi.
Found: < 5.52

Lookup: For the compound shown here, COC(=O)[C@@H]1C[C@H](OC(C)=O)C(=O)[C@H]2[C@@]1(C)CC[C@H]1C(=O)O[C@H](C3=CC4OC3c3ccccc34)C[C@]21C (stereo partly drawn) , give the reported pKi.
Found: < 5.60

Lookup: For the compound shown here, "CCOC(=O)c1ccc([C@@H]2C[C@]3(C)[C@H]4C(=O)[C@@H](OC(C)=O)C[C@@H](C(=O)OC)[C@]4(C)CC[C@H]3C(=O)O2)cc1C(=O)OCC" , give the reported pKi.
Found: < 5.52

Lookup: For the compound shown here, "COC(=O)c1ccc([C@@H]2C[C@]3(C)[C@H]4C(=O)[C@@H](OC(C)=O)C[C@@H](C(=O)OC)[C@]4(C)CC[C@H]3C(=O)O2)cc1C(=O)OC" , give the reported pKi.
Found: < 5.52

Lookup: For the compound shown here, COC(=O)[C@@H]1C[C@H](OC(C)=O)C(=O)[C@H]2[C@@]1(C)CC[C@H]1C(=O)O[C@H](C3=CC4OC3C3C5OC(c6c5c5ccccc5c(=O)c5ccccc65)C43)C[C@]21C (mixture of isomers) , give the reported pKi.
Found: < 5.57

Lookup: For the compound shown here, COC(=O)C1=C(C(=O)OC)C2OC1C=C2[C@@H]1C[C@]2(C)[C@H]3C(=O)[C@@H](OC(C)=O)C[C@@H](C(=O)OC)[C@]3(C)CC[C@H]2C(=O)O1 (stereo partly drawn) , give the reported pKi.
Found: < 5.32

Lookup: For the compound shown here, COC(=O)[C@@H]1C[C@H](OC(C)=O)C(=O)[C@H]2[C@@]1(C)CC[C@H]1C(=O)O[C@H](C3=CC4OC3C3C4C4OC3(C)c3c4c4ccccc4c(=O)c4ccccc34)C[C@]21C (stereo partly drawn) , give the reported pKi.
Found: < 5.77

* * *

# Protocol description: Selectivity ratio of Ki for delta opioid receptor to Ki for kappa opioid receptor
Please respond with reported Ratio Ki for every item in the list.

Lookup: For the molecule shown here, "COC(=O)[C@@H]1C[C@H](OC(C)=O)C(=O)[C@H]2[C@@]1(C)CC[C@H]1C(=O)O[C@H](c3ccc4ccccc4c3)C[C@]21C" , give the reported Ratio Ki.
Found: > 0.6

Lookup: For the molecule shown here, "COC(=O)c1ccc([C@@H]2C[C@]3(C)[C@H]4C(=O)[C@@H](OC(C)=O)C[C@@H](C(=O)OC)[C@]4(C)CC[C@H]3C(=O)O2)cc1C(=O)OC" , give the reported Ratio Ki.
Found: > 17

Lookup: For the molecule shown here, COC(=O)C1=C(C(=O)OC)C2OC1C=C2[C@@H]1C[C@]2(C)[C@H]3C(=O)[C@@H](OC(C)=O)C[C@@H](C(=O)OC)[C@]3(C)CC[C@H]2C(=O)O1 (stereo partly drawn) , give the reported Ratio Ki.
Found: > 83

Lookup: For the molecule shown here, CCOC(=O)C1=C(C(=O)OCC)C2OC1C=C2[C@@H]1C[C@]2(C)[C@H]3C(=O)[C@@H](OC(C)=O)C[C@@H](C(=O)OC)[C@]3(C)CC[C@H]2C(=O)O1 (stereo partly drawn) , give the reported Ratio Ki.
Found: 19

Lookup: For the molecule shown here, COC(=O)[C@@H]1C[C@H](OC(C)=O)C(=O)[C@H]2[C@@]1(C)CC[C@H]1C(=O)O[C@H](C3=CC4OC3C3C4C4OC3(C)c3c4c4ccccc4c(=O)c4ccccc34)C[C@]21C (stereo partly drawn) , give the reported Ratio Ki.
Found: > 17

Lookup: For the molecule shown here, COC(=O)[C@@H]1C[C@H](OC(C)=O)C(=O)[C@H]2[C@@]1(C)CC[C@H]1C(=O)O[C@H](C3=CC4OC3c3ccccc34)C[C@]21C (stereo partly drawn) , give the reported Ratio Ki.
Found: > 13

Lookup: For the molecule shown here, COC(=O)[C@@H]1C[C@H](OC(C)=O)C(=O)[C@H]2[C@@]1(C)CC[C@H]1C(=O)O[C@H](C3=CC4OC3C3C5OC(c6c5c5ccccc5c(=O)c5ccccc65)C43)C[C@]21C (mixture of isomers) , give the reported Ratio Ki.
Found: > 17

Lookup: For the molecule shown here, "CCOC(=O)c1ccc([C@@H]2C[C@]3(C)[C@H]4C(=O)[C@@H](OC(C)=O)C[C@@H](C(=O)OC)[C@]4(C)CC[C@H]3C(=O)O2)cc1C(=O)OCC" , give the reported Ratio Ki.
Found: > 22
